biological target: human EP4 receptor (Homo sapiens, UniProt P35408); experiment: Assay of calcium current inhibition on EP4 receptor (FLIPR, 293 cells); type: cell-based; parameters: expressed in transfected cells; host or cells: 293 cells; conditions: 293 cells overexpressing human EP4; PGE2 at EC80; FLIPR
Sequence (P35408 whole entry): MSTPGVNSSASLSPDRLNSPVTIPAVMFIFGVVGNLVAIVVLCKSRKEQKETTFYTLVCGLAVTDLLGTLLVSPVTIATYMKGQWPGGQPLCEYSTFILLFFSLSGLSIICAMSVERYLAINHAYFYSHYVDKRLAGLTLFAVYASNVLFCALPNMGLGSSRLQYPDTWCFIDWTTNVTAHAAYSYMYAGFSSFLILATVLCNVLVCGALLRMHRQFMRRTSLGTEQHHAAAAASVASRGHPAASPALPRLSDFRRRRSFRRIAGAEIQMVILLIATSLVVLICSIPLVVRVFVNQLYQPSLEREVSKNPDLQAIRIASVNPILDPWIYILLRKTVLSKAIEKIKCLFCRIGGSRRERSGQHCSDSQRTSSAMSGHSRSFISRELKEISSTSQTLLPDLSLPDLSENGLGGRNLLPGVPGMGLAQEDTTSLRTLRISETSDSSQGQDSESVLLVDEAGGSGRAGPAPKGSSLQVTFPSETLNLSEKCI
Quick reference for pIC50 among some molecules
As a rule, pIC50 stands for the negative log10 of the concentration, concentration in M.

Check out these entries, answers already filled in.
# molecule, pIC50
measured = [
    ("C[C@H](NC(=O)c1c(C(F)F)nn(C)c1Oc1cccc(OCC(F)(F)F)c1)c1ccc(C(=O)O)cc1", 7.92),
    ("CC(F)c1cccc(Oc2c(C(=O)N[C@@H](C)c3ccc(C(=O)O)cc3)c(C(F)F)nn2C)c1 (stereo partly drawn)", 8.00),
    ("CSc1cccc(Oc2c(C(=O)N[C@@H](C)c3ccc(C(=O)O)cc3)c(C(F)F)nn2C)c1", 7.82),
]

Query: Which pIC50 value is on record for CCc1cccc(Oc2c(C(=O)N[C@@H](C)c3ccc(C(=O)O)cc3)c(C(F)F)nn2C)c1 ?
Response: 7.82

Query: Can you share its pIC50? I mean this molecule: C[C@H](NC(=O)c1c(C(F)F)nn(C)c1Sc1cccc(C(F)(F)F)c1)c1ccc(C(=O)O)cc1
Response: 8.22

Query: Which value of pIC50 has been reported for CCc1cc(Oc2c(C(=O)N[C@@H](C)c3ccc(C(=O)O)cc3)c(C(F)F)nn2C)ccc1Cl in the records?
Response: 8.10
